Assign pKd to each entry below.
SYSTEM_UNDER_TEST: GST-BCL-2δC21 fusion protein [GST: P08515]
ASSAY: fluorescence polarization, 25 nM fluorescein-peptide titrated with GST-BCL-2, 37 C
pKd: −log10 of the molar value.

Dear colleague, could you send me pKd for each of the items below? Thanks.
1. NOXAABH3 (peptide)
2. NOXABBH3 (peptide)

Completion:
["< 6.00", "< 6.00"]
